Data provenance is patent US8471005B2.

Target: ALK (Homo sapiens, UniProt Q9UM73)
Construct: host or cells: baculovirus expression system
Sequence (Q9UM73 19-1620): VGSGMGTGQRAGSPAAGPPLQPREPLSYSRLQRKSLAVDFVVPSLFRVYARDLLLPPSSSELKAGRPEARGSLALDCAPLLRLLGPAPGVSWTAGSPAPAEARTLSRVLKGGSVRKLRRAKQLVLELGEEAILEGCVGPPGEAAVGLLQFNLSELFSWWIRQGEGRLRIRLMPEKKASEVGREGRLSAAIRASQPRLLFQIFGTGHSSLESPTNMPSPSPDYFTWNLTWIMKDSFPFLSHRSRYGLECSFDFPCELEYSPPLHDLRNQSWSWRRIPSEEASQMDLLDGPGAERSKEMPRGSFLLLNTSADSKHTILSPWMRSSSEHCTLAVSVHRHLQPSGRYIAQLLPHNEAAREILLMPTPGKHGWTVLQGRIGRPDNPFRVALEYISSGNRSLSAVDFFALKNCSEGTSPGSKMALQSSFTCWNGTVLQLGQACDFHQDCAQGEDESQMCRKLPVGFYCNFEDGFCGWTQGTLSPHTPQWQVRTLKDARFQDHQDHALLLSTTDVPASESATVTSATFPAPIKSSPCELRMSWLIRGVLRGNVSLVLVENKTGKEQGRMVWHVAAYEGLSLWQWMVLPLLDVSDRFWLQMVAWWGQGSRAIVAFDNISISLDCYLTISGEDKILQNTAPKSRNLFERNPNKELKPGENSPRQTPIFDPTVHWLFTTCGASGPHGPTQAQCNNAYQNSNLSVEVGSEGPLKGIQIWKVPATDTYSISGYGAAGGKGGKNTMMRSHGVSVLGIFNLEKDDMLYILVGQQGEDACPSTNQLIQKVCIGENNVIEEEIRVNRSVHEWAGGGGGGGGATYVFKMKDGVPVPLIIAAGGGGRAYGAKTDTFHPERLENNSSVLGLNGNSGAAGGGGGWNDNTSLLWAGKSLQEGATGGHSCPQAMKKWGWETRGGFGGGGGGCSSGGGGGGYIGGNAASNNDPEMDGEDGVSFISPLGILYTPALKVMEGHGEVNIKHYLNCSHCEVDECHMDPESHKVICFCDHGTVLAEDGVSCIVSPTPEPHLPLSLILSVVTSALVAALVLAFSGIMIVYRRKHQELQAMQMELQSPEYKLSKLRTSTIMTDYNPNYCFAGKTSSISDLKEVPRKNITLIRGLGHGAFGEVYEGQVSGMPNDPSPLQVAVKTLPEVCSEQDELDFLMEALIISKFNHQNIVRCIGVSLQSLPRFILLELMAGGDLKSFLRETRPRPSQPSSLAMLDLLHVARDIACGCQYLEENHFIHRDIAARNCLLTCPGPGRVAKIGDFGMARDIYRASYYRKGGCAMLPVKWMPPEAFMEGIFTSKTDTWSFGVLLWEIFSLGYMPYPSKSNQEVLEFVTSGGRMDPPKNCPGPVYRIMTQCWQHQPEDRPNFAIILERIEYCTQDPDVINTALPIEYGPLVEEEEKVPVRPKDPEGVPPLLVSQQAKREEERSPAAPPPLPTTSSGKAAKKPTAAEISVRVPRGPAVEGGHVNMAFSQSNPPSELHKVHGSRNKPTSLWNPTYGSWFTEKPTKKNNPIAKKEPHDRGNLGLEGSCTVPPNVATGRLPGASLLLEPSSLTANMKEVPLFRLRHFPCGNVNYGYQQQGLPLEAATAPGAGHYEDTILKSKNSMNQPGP
Assay: ALK Kinase Assay (ELISA/TRF, PLC-γ substrate)
Format: biochemical
Details: ALK Kinase Inhibition; read-out: ALK Potency
Experimental: Briefly, each 96-well plate was coated with […] of 10 μg/mL substrate (phospholipase C-γ) in Tris-buffered saline (TBS). […] The reaction was initiated by adding enzyme (30 ng/ml ALK) and was allowed to proceed at 37° C. for 15 minutes. Detection of the phosphorylated product was performed by adding 100 μl/well of Eu—N1 labeled PT66 antibody (Perkin Elmer # AD0041). Data analysis was performed using ActivityBase (IDBS, Guilford, UK). […]
readout_label: IC50

{"molecule": "CC(=O)c1ccccc1-c1ccc2cnc(Nc3ccc(N4CCOCC4)cc3)nn12 [Example 400]", "IC50": "1000 to 10000 nM"}
{"molecule": "c1ccc(Nc2ncc3cc4ccccc4n3n2)cc1 [Example 270]", "IC50": "> 10000 nM"}
{"molecule": "CC(C)(C)NS(=O)(=O)c1cccc(-c2ccc3cnc(Nc4ccc(Cl)cc4)nn23)c1 [Example 1400]", "IC50": "1000 to 10000 nM"}
{"molecule": "COc1cc(Nc2ncc3ccc(-c4ccccc4)n3n2)cc(OC)c1OC [Example 13]", "IC50": "100 to 1000 nM"}

Name the reported IC50 value associated with the molecule COc1cc(N2CCC[C@@H](CN3CCN(C)CC3)C2)ccc1Nc1ncc2ccc(-c3ccccc3N(C)S(C)(=O)=O)n2n1 [Example 469]
< 100 nM
